tested on: Mus musculus; assay: Antitussive activity in ammonia liquor-induced cough ICR mouse model assessed as reduction in cough frequency at 20 mg/kg, po treated with ammonia 1 hr before and 1 hr after test compound dosing measured for 3 mins; type: functional, organism-based
The source made the active and inactive calls. The rule behind the calls is not given here.
Permitted responses: t (active), f (inactive)

Short answer needed: outcome of this test for `C=CC(C)(C)c1cc(/C=C/C(=O)c2ccc(O)cc2)c(OC)cc1O` ?
f

Item: `CC(C)=CCc1cc2c(=O)cc(-c3ccc(O)cc3)oc2cc1O`
f

What do we get for `CC1(C)[C@@H](O[C@H]2O[C@H](C(=O)O)[C@@H](O)[C@H](O)[C@H]2O[C@@H]2O[C@H](C(=O)O)[C@@H](O)[C@H](O)[C@H]2O)CC[C@]2(C)[C@H]3C(=O)C=C4[C@@H]5C[C@@](C)(C(=O)O)CC[C@]5(C)CC[C@@]4(C)[C@]3(C)CC[C@@H]12` ?
f

Now consider `COc1c(CC=C(C)C)c(O)cc2oc(=O)c(-c3ccc(O)cc3O)cc12` and answer again.
f

Please answer likewise for `O=C(/C=C/c1ccc(O[C@@H]2O[C@H](CO)[C@@H](O)[C@H](O)[C@H]2O)cc1)c1ccc(O)cc1O`
f

Can you check `O=C(/C=C/c1ccc(O[C@H]2O[C@@H](CO)[C@H](O)[C@@H](O)[C@@H]2O[C@@H]2OC[C@](O)(CO)[C@H]2O)cc1)c1ccc(O)cc1O` next?
t

How about this molecule: `O=C(/C=C/c1ccc(O)cc1)c1ccc(O)cc1O`
f

Do the same for `CC(C)=CCc1cc(-c2coc3cc(O)c(CC=C(C)C)c(O)c3c2=O)cc(O)c1O` please
f

Now give it for `COc1cc(O)ccc1/C=C/C(=O)c1ccc(O)cc1` too.
f
